- assayText: Pharmacokinetics test of mice
- Type: in vivo, C57BL/6J male mice
- statedConditions: mouse, plasma, iv, 3 mg/kg, i.v. 3 mpk
readoutKind: half-life (min)
Quick note: give the figure in min, leave out the unit.

Reported half-life, molecule CC(C)(C)[C@H](NC(=O)C(F)(F)F)C(=O)N1[C@H]2C[C@@H]([C@H]1C(=O)N[C@H](C#N)C[C@@H]1CCNC1=O)C1(CC1)C2 [Compound 11] : ____
12

* * *

- assayText: Pharmacokinetic test in combination with Ritonavir in mice
- Assay type: in vivo, C57BL/6J male mice
- statedConditions: mouse, plasma, po, 10 mg/kg, p.o. 10 mpk, with Ritonavir 10 mpk
readoutKind: AUC(0-t) (µM·h)
The reply should be a number in µM·h, with the unit left off.

Value lookup for AUC(0-t); key = CC(C)(C)[C@H](NC(=O)C(F)(F)F)C(=O)N1[C@H]2C[C@@H]([C@H]1C(=O)N[C@H](C#N)C[C@@H]1CCNC1=O)C1(CC1)C2 [Compound 11]
28.7
